Target: XIAP BIR-3 (Homo sapiens, UniProt P98170)
Construct: 40 nM of the respective IAP BIR3
Sequence (P98170 241-356 limits assumed): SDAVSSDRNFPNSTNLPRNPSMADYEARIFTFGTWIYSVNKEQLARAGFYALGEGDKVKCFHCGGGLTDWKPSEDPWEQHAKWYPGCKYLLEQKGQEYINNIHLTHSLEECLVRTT
Test: Fluorescence polarization binding to XIAP BIR-3 with labeled peptide AbuRPF-K(5-Fam)-NH2
Details: 40 nM BIR3, 5 nM labeled peptide, reported as ranges
Reported Kd by item:

Recorded Kd, per entry:
CN[C@@H](C)C(=O)N[C@H](C(=O)N1CC[C@@H]2[C@H]1[C@@H](COc1ccc(F)c(F)c1)CN2C(=O)NC(C)C)C(C)(C)C [Example 67] :: < 100 nM
CN[C@@H](C)C(=O)N[C@H](C(=O)N1CC[C@@H]2[C@H]1[C@@H](OCc1ccc(F)cc1)CN2C(=O)NC(C)C)C(C)(C)C [Example 37] :: < 100 nM
CN[C@@H](C)C(=O)N[C@H](C(=O)N1CC[C@@H]2[C@H]1[C@@H](OCc1ccc(F)cc1)CN2C(=O)N(C)C)C(C)(C)C [Example 41] :: < 100 nM
CCN1C[C@H](Oc2ccc(F)c(F)c2)[C@@H]2[C@H]1CCN2C(=O)[C@@H](NC(=O)[C@H](C)NC)C(C)(C)C [Example 16] :: < 100 nM
CN[C@@H](C)C(=O)N[C@H](C(=O)N1CC[C@@H]2[C@H]1[C@@H](Oc1ccc(F)c(F)c1)CN2S(C)(=O)=O)C1CCCCC1 [Example 13] :: < 100 nM
CN[C@@H](C)C(=O)N[C@H](C(=O)N1CC[C@H]2NC[C@H](Oc3ccccc3-c3ccccc3)[C@H]21)C1CCCCC1 [Example 4] :: 100 to 1000 nM

What measured Kd goes with CNC(=O)N1C[C@H](OCc2ccc(F)cc2)[C@@H]2[C@H]1CCN2C(=O)[C@@H](NC(=O)[C@H](C)NC)C(C)(C)C [Example 36] ? 100 to 1000 nM

What measured Kd goes with CN[C@@H](C)C(=O)N[C@H](C(=O)N1CC[C@@H]2[C@H]1[C@@H](OCc1ccc(F)cc1)CN2C(=O)NCc1ccccc1)C(C)(C)C [Example 30] ? < 100 nM

Which Kd value is on record for CN[C@@H](C)C(=O)N[C@H](C(=O)N1CC[C@@H]2[C@H]1[C@@H](OCc1ccc(F)cc1)CN2C(=O)CC(C)C)C(C)(C)C [Example 39] ? < 100 nM

# get_value(readout='Kd', item= CN[C@@H](C)C(=O)N[C@H](C(=O)N1CC[C@@H]2[C@H]1[C@@H](OCc1ccc(F)cc1)CN2C1CCOCC1)C(C)(C)C [Example 43] ) 100 to 1000 nM

Give its Kd value. Item: CN[C@@H](C)C(=O)N[C@H](C(=O)N1CC[C@@H]2[C@H]1[C@@H](Oc1ccccc1)CN2S(C)(=O)=O)C(C)C [Example 3] < 100 nM

For CN[C@@H](C)C(=O)N[C@H](C(=O)N1CC[C@@H]2[C@H]1[C@@H](Oc1ccc(F)c(F)c1)CN2S(C)(=O)=O)[C@@H](C)OC [Example 14] , what is its reported Kd? < 100 nM

* * *

Molecular target: XIAP BIR-3 (Homo sapiens, UniProt P98170)
Construct: 40 nM of the respective IAP BIR3
Assay: Fluorescence polarization binding to XIAP BIR-3 with labeled peptide AbuRPF-K(5-Fam)-NH2
Details: 40 nM BIR3, 5 nM labeled peptide, reported as ranges
Entries and their measured Kd follow.

Examples with their reported Kd follow.
CN[C@@H](C)C(=O)N[C@H](C(=O)N1CC[C@@H]2[C@H]1[C@@H](OC(=O)N1CCCCC1)CN2C(=O)NC(C)C)C(C)(C)C :: 1000 to 10000 nM
CN[C@@H](C)C(=O)N[C@H](C(=O)N1CC[C@@H]2[C@H]1[C@@H](Oc1ccccc1)CN2C(C)=O)C(C)C :: 1000 to 10000 nM
CN[C@@H](C)C(=O)N[C@H](C(=O)N1CC[C@@H]2[C@H]1[C@@H](O)CN2C(=O)NC(C)C)C(C)(C)C :: > 10000 nM
CN[C@@H](C)C(=O)N[C@H](C(=O)N1CC[C@H]2NC[C@H](OCc3ccccc3)[C@H]21)C1CCCCC1 :: 100 to 1000 nM
CNC(=O)N1C[C@H](COc2ccc(F)c(F)c2)[C@@H]2[C@H]1CCN2C(=O)[C@@H](NC(=O)[C@H](C)NC)C(C)(C)C :: < 100 nM

Would you kindly share the measured Kd for CN[C@@H](C)C(=O)N[C@H](C(=O)N1CC[C@@H]2[C@H]1[C@@H](COc1ccc(F)c(F)c1)CN2C(C)=O)C(C)(C)C ? < 100 nM
